# measurement.target: Phosphatidylinositol 4,5-bisphosphate 3-kinase catalytic subunit gamma isoform (Homo sapiens, UniProt P48736)
# Sequence (P48736 whole entry, canonical isoform): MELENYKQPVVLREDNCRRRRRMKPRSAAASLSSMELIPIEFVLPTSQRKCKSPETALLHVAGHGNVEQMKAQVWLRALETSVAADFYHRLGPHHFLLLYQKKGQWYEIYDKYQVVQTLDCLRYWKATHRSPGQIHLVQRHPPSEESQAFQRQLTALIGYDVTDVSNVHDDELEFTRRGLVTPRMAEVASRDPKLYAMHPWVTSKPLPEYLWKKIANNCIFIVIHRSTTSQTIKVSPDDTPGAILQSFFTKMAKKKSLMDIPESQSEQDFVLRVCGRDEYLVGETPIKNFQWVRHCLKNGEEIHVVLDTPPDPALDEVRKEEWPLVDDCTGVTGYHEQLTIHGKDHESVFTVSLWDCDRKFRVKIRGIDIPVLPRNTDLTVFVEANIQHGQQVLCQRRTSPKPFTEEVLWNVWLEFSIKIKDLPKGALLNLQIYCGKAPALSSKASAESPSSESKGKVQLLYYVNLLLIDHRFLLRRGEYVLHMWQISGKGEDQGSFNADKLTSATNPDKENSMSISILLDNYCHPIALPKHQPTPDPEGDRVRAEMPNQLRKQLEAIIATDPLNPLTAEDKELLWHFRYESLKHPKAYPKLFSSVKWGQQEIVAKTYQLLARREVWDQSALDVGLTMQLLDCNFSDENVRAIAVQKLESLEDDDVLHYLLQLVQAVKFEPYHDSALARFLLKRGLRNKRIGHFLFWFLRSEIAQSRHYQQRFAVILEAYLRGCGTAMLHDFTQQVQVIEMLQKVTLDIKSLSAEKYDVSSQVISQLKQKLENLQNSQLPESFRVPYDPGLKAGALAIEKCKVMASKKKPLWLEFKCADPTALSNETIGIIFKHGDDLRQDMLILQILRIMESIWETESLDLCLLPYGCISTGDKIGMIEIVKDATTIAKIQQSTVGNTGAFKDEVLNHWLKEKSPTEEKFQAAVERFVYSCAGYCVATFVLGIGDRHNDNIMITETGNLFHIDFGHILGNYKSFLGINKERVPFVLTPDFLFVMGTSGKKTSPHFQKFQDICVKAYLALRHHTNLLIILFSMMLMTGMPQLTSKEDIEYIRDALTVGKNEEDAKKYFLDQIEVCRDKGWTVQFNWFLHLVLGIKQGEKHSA
# experiment.summary: Inhibition of PI3Kgamma (unknown origin) in […] stimulated human THP-1 cells assessed as reduction in Akt phosphorylation level at Ser473 residue preincubated for 60 mins followed by rhMCP-1 stimulation and measured after 2 mins by AlphaLisa assay
# Assay type: cell-based
measured.metric: pIC50
FYI, pIC50 means -log10 of a concentration in mol per litre.

>>> measured_result("C[C@H](N1Cc2cc(-c3ccn4nc(N)c(C(=O)N[C@@H](CO)C5CC5)c4n3)cc(OC(F)F)c2C1=O)C(F)(F)F")
7.17
>>> measured_result("C[C@@H](C1CC1)N1Cc2cc(-c3ccn4nc(N)c(C(=O)NC5CC5)c4n3)cc(C3CC3)c2C1=O")
7.18
>>> measured_result("C[C@H](N1Cc2cc(-c3ccn4nc(N)c(C(=O)N[C@H]5CC[C@@](C)(O)CC5)c4n3)cc(NS(C)(=O)=O)c2C1=O)C(F)(F)F")
7.51

Quick note, pIC50 for CNS(=O)(=O)c1cc(-c2ccn3nc(N)c(C(=O)N[C@@H](CO)C4CC4)c3n2)cc2c1C(=O)N([C@@H](C)C(F)(F)F)C2 landed at 7.02

* * *

# experiment.summary: AUC(0 to infinity) in cynomolgus monkey at 1 mg/kg, iv
# Type: ADME, organism-based, Macaca fascicularis
# Parameters: time infinity, dose 1 mg/kg, route iv
# conditions: in vivo
measured.metric: AUC(0-inf) (ng·h/mL)
Give the quantity in ng·h/mL, number only.

Entry C[C@@H](C1CC1)N1Cc2cc(-c3ccn4nc(N)c(C(=O)N[C@H]5CC[C@@](C)(O)CC5)c4n3)cc(OC(F)F)c2C1=O — recorded AUC(0-inf) = 925

Reported AUC(0-inf) ( C[C@@H](C1CC1)N1Cc2cc(-c3ccn4nc(N)c(C(=O)N[C@H]5CC[C@@](C)(O)CC5)c4n3)cc(OC(F)(F)F)c2C1=O ) = 949

* * *

Recorded pIC50 for the following compounds
# measurement.target: Phosphatidylinositol 4,5-bisphosphate 3-kinase catalytic subunit alpha isoform (Homo sapiens, UniProt P42336)
# Sequence (P42336 whole entry, canonical isoform): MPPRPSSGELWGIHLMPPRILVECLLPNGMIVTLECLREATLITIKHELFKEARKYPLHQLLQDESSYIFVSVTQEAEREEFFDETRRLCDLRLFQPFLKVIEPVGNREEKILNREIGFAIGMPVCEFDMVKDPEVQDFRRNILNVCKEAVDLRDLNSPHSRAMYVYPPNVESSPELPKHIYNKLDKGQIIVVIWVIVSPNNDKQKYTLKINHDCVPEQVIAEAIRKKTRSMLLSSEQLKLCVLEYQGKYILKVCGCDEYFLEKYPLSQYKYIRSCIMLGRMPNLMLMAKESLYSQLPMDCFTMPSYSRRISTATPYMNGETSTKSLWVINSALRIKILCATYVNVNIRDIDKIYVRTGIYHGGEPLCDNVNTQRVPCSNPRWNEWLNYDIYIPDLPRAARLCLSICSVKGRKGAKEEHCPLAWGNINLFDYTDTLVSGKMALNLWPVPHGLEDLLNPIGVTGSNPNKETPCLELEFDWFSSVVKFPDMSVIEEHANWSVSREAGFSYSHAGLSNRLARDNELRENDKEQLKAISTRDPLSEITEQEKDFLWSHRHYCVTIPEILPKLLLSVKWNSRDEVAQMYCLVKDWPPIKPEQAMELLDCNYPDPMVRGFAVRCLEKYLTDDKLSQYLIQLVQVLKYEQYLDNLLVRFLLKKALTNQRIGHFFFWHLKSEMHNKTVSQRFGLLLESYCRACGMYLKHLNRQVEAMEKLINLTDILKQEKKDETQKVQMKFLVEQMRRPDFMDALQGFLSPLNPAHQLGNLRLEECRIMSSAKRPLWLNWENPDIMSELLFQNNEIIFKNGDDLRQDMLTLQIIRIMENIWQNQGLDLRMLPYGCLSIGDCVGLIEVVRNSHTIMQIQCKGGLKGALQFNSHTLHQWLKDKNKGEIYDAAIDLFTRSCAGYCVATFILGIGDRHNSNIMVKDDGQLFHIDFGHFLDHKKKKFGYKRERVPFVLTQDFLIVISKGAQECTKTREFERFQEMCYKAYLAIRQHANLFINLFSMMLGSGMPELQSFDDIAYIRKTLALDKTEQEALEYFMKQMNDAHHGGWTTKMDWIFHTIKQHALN
# experiment.summary: Inhibition of PI3Kalpha (unknown origin) using PIP2 as substrate preincubated for 1 hr followed by substrate addition and measured after 60 mins in presence of ATP by ADP-glo assay
Please keep in mind that pIC50 is minus log10 of the molar concentration; only the number is needed.

>>> measured_result("Cc1cc(-c2ccn3nc(N)c(C(=O)NC4CC4)c3n2)cc2c1C(=O)N(CC1CC1)C2")
6.37
>>> measured_result("C[C@@H](C1CC1)N1Cc2cc(-c3ccn4nc(N)c(C(=O)NC5CC5)c4n3)cc(OC(F)(F)F)c2C1=O")
5.83
>>> measured_result("C[C@@H](C1CC1)N1Cc2cc(-c3ccn4nc(N)c(C(=O)NC5CC5)c4n3)cc(NS(C)(=O)=O)c2C1=O")
6.23
>>> measured_result("CS(=O)(=O)Nc1cc(-c2ccn3nc(N)c(C(=O)NC4CC4)c3n2)cc2c1C(=O)N([C@@H](C1CC1)C(F)(F)F)C2")
5.27
>>> measured_result("Cc1cc(-c2ccn3nc(N)c(C(=O)N[C@H](C)CO)c3n2)cc2c1C(=O)N([C@@H](C)C1CC1)C2")
6.15
>>> measured_result("CC(C)S(=O)(=O)c1cc(-c2ccn3nc(N)c(C(=O)NC4CC4)c3n2)cc2c1C(=O)N([C@@H](C)C1CC1)C2")
6.02

Lab book: pIC50 of CNS(=O)(=O)c1cc(-c2ccn3nc(N)c(C(=O)N[C@H]4CC[C@](C)(O)CC4)c3n2)cc2c1C(=O)N([C@@H](C)C(F)(F)F)C2 noted as 7.31

Entry Cc1cc(-c2ccn3nc(N)c(C(=O)NC4CCC4)c3n2)cc2c1C(=O)N([C@@H](C)C1CC1)C2 ; pIC50 = 5.44
